ASSAYED_TARGET: recombinant ASK1 (Homo sapiens)
Construct: purchased Carna Biosciences
Sequence (Q99683 654-971 limits assumed): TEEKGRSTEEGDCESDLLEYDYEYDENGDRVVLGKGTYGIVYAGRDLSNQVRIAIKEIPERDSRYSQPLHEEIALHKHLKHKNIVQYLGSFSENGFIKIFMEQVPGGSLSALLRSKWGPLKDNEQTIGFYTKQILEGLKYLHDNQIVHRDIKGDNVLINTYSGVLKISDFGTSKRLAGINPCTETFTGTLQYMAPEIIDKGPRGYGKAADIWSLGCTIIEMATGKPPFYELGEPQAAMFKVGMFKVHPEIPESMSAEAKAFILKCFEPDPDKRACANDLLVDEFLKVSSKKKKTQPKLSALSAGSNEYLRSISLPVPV
ASSAY_TEXT: ASK1 Biochemical Assay (HTRF KinEASE-STK S3)
PARTICULARS: ATP 100 μM; read-out: Biochemical Assay IC50
ENDPOINT_LABEL: IC50

[in] Sample CC(C)n1cnnc1-c1cccc(N2CCN(c3cc(-c4ccc(S(C)(=O)=O)nc4)ccc3F)C2=O)n1 — what was its IC50?
[out] > 1000 nM

[in] Sample CC(C)NC(=O)c1ccc(N2CCN(c3cccc(-c4nncn4C(C)C)n3)C2=O)cn1 — what was its IC50?
[out] < 100 nM

[in] Sample CC(C)NC1CN(c2ccc(N3CCN(c4cccc(-c5nncn5C(C)C)n4)C3=O)cc2)C1 — what was its IC50?
[out] < 100 nM

[in] Sample CC(n1cnnc1-c1cccc(N2CCN(c3ccc(S(C)(=O)=O)cc3)C2=O)n1)C(F)(F)F (centres unmarked) — what was its IC50?
[out] < 100 nM

[in] Sample CC(C)n1cnnc1-c1cccc(N2CCN(c3ccnc(N4CCOCC4)c3)C2=O)n1 — what was its IC50?
[out] > 1000 nM

[in] Sample CC(C)n1cnnc1-c1cccc(N2CCN(c3ccc(N4CCN(C(=O)CC#N)CC4)cc3)C2=O)n1 — what was its IC50?
[out] < 100 nM

[in] Sample CNC(=O)c1ccc(N2CCN(c3cccc(-c4nncn4C(C)C)n3)C2=O)cn1 — what was its IC50?
[out] < 100 nM

[in] Sample CC(C)n1cnnc1-c1cccc(N2CCN(c3ccc(C#N)cc3)C2=O)n1 — what was its IC50?
[out] < 100 nM

The reported numbers originate from patent US20220332700A1.
